The values you see were collected from ChEMBL document CHEMBL5665443.

target: Methyl-CpG-binding domain protein 4 (Homo sapiens) (UniProt O95243); conditions: Compound Concentration 10.0 uM, Hit No;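 further: MBD4 activity read as fluorescence at 594 nm from cleavage and release of a quenched duplex DNA oligonucleotide, with APE1 coupled to incise the strand and raise turnover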
Sequence (O95243 whole entry, the tested form may be a part): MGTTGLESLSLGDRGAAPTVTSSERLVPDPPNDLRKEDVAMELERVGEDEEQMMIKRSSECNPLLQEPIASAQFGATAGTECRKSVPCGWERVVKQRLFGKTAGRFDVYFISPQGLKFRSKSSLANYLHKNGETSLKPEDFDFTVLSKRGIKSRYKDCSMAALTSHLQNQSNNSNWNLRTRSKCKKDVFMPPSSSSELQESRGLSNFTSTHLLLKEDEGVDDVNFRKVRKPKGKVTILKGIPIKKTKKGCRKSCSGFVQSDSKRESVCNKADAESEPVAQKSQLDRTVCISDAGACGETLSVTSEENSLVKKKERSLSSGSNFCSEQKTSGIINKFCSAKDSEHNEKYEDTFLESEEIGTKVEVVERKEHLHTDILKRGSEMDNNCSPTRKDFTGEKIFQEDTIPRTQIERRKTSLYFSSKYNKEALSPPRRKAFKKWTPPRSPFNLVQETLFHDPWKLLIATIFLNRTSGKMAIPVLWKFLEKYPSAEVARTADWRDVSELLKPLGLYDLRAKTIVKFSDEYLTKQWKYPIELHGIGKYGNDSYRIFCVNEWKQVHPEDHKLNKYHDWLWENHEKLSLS
Description: Inhibition of MBD4 by quantifying inhibition of MBD4-mediated cleavage and dissociation of quenched duplex DNA oligonucleotides, measured as fluorescence at 594 nm. To generate a functional strand incision and increase turn-over this assay is coupled to APE1.

{"columns": ["compound", "inhibition, %"],
 "data": [
  ["CN1CCN(c2ccnc(NCCc3ccccc3)n2)CC1", 69],
  ["COc1ccc2[nH]c(I)c(CCNC(C)=O)c2c1", 8.97],
  ["Cc1nnc2n1-c1sc(CCC(=O)N3CCOCC3)cc1C(c1ccccc1Cl)=NC2", -1.19],
  ["CCCc1c(OCCCOc2ccc(OCC(=O)O)cc2)ccc(C(C)=O)c1O", 63.2],
  ["CC[C@H](C(=O)Nc1ccccc1N1CCCC1)c1ccccc1", 34.6],
  ["N#Cc1cc(F)cc(-c2nc(-c3ccc(F)cn3)no2)c1", 0.258],
  ["Cc1c(C2=CCN(C(=O)N(C)C(C)C)CC2)nnn1-c1cccnc1F", 0.847],
  ["CC(C)(C)c1ccc(NC(=O)N2CCN(c3ncccc3Cl)CC2)cc1", 8.84],
  ["COC(=O)N1CCN(C(=O)Cc2ccc(Cl)c(Cl)c2)C(CN2CCCC2)C1 (configuration not stated)", 11.3],
  ["C=C(C)[C@H]1CN[C@H](C(=O)O)[C@H]1CC(=O)O", 2.41],
  ["Cc1cc2c(-c3ccco3)cnc(N[C@H]3CCN(C)C[C@@H]3C(=O)NC3CCCCC3)c2[nH]c1=O", 29.8],
  ["CC(C)c1noc(N2CCC(COc3ccc(-c4ccc(S(C)(=O)=O)cc4)nc3)CC2)n1", -9.32],
  ["Cc1ccnc(Nc2nc(-c3ccccn3)cs2)c1", 9.11],
  ["CCc1nnc(NS(=O)(=O)c2ccc(NC(=S)NC(=O)/C=C/c3ccc(F)cc3)cc2)s1", 48],
  ["O=C(O)CC1CCC2(CC1)CCN(c1cc(OC(F)(F)F)ccc1Cl)CC2", 25.2],
  ["CCCCC[C@H](O)/C=C/[C@@H]1[C@@H](C/C=C\\CCCC(=O)O)[C@@H](O)C[C@H]1O", -2.06],
  ["COc1c(Nc2ccc(S(C)(=O)=O)nc2C)ncnc1OC1CCN(C(=O)OC(C)C)CC1", -6.99],
  ["CCCCCN1C(=O)C2(COc3cc4c(cc32)OCO4)c2ccccc21 (configuration not stated)", 29],
  ["COc1cc2nc(N3CCN(C(=O)C4CCCO4)CC3)nc(N)c2cc1OC (configuration not stated)", 17],
  ["CNC(=O)c1cc(C(=O)N[C@H]2[C@@H]3COC[C@@H]32)cc2c1O[C@H](CF)[C@H]2c1ccccc1", 47.2],
  ["O[C@H]1CC[C@H](Nc2ncc3nc(Nc4c(F)cc(F)cc4F)n([C@H]4CCOC4)c3n2)CC1", -7.12],
  ["CCN(CC)S(=O)(=O)Nc1cccc(-c2ccc3c(NC(=O)C4CC4)n[nH]c3c2)c1", -2.59],
  ["Cc1ccc(/C(=C\\CN2CCCC2)c2ccccn2)cc1", -4.67],
  ["C=C1/C(=C\\C=C2/CCC[C@]3(C)[C@@H]([C@H](C)/C=C/C=C/C(O)(CC)CC)CC[C@@H]23)C[C@@H](O)C[C@@H]1O", 53.8],
  ["O=C(O)CCC/C=C\\CC1C(O)CC(O)C1/C=C/C(O)COc1cccc(Cl)c1 (configuration not stated)", -2.64],
  ["Cc1nccc(COC(=O)N2C[C@@H]3[C@@H](CNC(=O)c4ccc5[nH]nnc5c4)[C@@H]3C2)n1", 55.9],
  ["CCOc1nc2cccc(C(=O)O)c2n1Cc1ccc(-c2ccccc2-c2nnn[nH]2)cc1", 1.2],
  ["Cc1cc(NC(=O)Nc2ccccc2)n(-c2ccccc2)n1", 0.993],
  ["Cc1ccc(-c2cnc([C@@]3(O)CC[C@H](C(=O)O)C(C)(C)C3)s2)cc1Nc1cccc(C(F)(F)F)n1", 60.9],
  ["CCc1ccccc1C(=O)Nc1n[nH]c2c(C)c(F)c(C3C(C#N)=C(C)N(C)C(C)=C3C#N)cc12", 44.9],
  ["O=C(O)Cn1c(C(=O)Nc2nc(-c3ccccc3Cl)cs2)cc2ccccc21", 38.1],
  ["COc1cc(F)ccc1-c1ncnc(Nc2cccc(C[S@](C)(=N)=O)c2)n1", -7.86]
]}
